Reported IC50 values for the following compounds.
# System tested: c-Kit kinase (Homo sapiens)
# Sequence (P10721 26-976): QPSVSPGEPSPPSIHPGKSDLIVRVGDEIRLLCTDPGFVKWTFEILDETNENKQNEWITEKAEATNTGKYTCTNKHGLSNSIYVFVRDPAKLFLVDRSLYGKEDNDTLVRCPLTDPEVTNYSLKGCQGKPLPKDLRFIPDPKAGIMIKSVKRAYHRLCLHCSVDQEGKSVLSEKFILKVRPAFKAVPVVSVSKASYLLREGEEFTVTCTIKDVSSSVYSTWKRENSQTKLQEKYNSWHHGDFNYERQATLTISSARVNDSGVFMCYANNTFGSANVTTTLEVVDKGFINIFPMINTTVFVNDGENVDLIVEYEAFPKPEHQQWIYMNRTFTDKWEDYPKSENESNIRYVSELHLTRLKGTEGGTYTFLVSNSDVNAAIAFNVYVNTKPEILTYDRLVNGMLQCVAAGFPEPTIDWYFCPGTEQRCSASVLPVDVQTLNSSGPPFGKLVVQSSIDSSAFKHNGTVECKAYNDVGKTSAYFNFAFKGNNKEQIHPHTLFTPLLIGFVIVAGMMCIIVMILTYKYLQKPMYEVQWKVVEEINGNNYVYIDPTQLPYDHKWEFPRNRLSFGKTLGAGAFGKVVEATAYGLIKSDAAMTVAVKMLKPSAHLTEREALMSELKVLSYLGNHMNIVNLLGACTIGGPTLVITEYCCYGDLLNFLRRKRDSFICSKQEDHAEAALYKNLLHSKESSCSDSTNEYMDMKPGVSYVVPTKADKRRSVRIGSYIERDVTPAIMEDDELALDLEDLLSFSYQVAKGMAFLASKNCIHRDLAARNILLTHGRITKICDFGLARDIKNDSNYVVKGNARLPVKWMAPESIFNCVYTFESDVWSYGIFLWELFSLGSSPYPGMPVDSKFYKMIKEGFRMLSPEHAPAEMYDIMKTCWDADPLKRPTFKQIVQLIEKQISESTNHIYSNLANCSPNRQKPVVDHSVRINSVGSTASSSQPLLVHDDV
# Assay explanation: c-Kit AlphaScreen kinase assay;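 note: c-Kit kinase phosphorylating biotinylated poly(Glu,Tyr), ATP near its KM, 1 h reaction at ambient temperature, AlphaScreen chemiluminescence with streptavidin donor and anti-phosphotyrosine acceptor beads, 10-point inhibitor titration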
# Assay type: biochemical
# Run parameters: Table 4, inhibition as IC50 class
Quantity: IC50

compound="COc1cc2c(Oc3ccc(NC(=O)C(=O)NCc4cccc(C(F)(F)F)c4)cc3F)ccnc2cc1OCC1CCNCC1 [Example 239]" meas_value="< 50 nM"
compound="CCN(CC)CCCOc1cc2nccc(Oc3ncc(NC(=O)CC(=O)Nc4ccc(F)cc4)cc3Cl)c2cc1OC [Example 267]" meas_value="50 to 500 nM"
compound="COc1ccccc1CNC(=O)C(=O)Nc1ccc(Oc2ccnc3cc(OCC4CCNCC4)c(OC)cc23)c(F)c1 [Example 241]" meas_value="< 50 nM"
compound="COc1cc2c(Oc3ccc(NC(=O)C(=O)NCc4cccc(Cl)c4)cc3F)ccnc2cc1OCC1CCNCC1 [Example 243]" meas_value="< 50 nM"
compound="COc1cc2c(Oc3ccc(NC(=O)C(=O)NCCc4ccc(Br)cc4)cc3F)ccnc2cc1OCC1CCNCC1 [Example 230]" meas_value="50 to 500 nM"
compound="COc1cc2c(Oc3ccc(NC(=O)C(=O)NCC(c4ccccc4)c4ccccc4)cc3F)ccnc2cc1OCC1CCNCC1 [Example 227]" meas_value="50 to 500 nM"

* * *

# System tested: Flt-4 (baculovirus expressed human Flt-4 kinase domain D725-R1298) (Homo sapiens)
# Construct: human Flt-4 kinase domain D725-R1298; host or cells: baculovirus expression
# Sequence (P35916 725-1298 isoform P35916-1): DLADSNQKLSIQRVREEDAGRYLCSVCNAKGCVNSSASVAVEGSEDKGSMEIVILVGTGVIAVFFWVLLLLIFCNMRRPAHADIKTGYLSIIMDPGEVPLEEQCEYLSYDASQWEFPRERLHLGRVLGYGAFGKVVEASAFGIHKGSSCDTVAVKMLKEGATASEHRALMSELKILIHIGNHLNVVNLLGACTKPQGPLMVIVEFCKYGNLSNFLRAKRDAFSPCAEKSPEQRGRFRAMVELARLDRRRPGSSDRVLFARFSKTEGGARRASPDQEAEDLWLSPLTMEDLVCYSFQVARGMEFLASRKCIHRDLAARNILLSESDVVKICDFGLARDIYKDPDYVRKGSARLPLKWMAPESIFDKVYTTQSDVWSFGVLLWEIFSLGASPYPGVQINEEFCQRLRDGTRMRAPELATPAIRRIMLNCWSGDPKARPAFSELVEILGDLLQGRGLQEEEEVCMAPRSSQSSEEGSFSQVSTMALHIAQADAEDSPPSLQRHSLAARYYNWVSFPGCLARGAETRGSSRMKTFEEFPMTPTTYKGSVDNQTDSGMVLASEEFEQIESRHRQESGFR
# Assay explanation: flt-4 Alphascreen Tyrosine Kinase assay;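 note: AlphaScreen chemiluminescence read-out of biotinylated poly(Glu,Tyr) 4:1 phosphorylation via streptavidin donor and PY100 anti-phosphotyrosine acceptor beads, ATP near KM, 1 hr kinase reaction, 10-point dose-response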
# Assay type: biochemical
# Run parameters: read-out: flt4 IC50
pIC50: −log10 of the molar value.
Quantity: pIC50

compound="COc1cc2nccc(Oc3ncc(NC(=O)C(C)(C)C(=O)Nc4ccc(F)cc4)cc3Cl)c2cc1OC [Example 292]" meas_value="6.30 to 7.30"
compound="COc1cc2c(Oc3cc(C)c(NC(=O)C4(C(=O)Nc5ccc(F)cc5)CC4)cc3F)ccnc2cc1OCCCN1CCOCC1 [Example 326]" meas_value="6.30 to 7.30"
compound="COc1cc2c(Oc3ncc(NC(=O)C4(C(=O)Nc5ccc(F)cc5)CC4)cc3Cl)ccnc2cc1OCc1ccccc1 [Example 309]" meas_value="5.30 to 6.30"
compound="COc1cc2c(Oc3ccc(NC(=O)C(=O)N4CCCC4)cc3F)ccnc2cc1OCC1CCNCC1 [Example 299]" meas_value="6.30 to 7.30"
compound="COc1cc2ncnc(Oc3ccc(NC(=O)C4(C(=O)Nc5ccc(F)cc5)CC4)cc3)c2cc1OC [Example 310]" meas_value="> 7.30"
compound="COc1cc2nccc(Oc3ccc(NC(=O)C4(C(=O)Nc5ccc(F)cc5)CC4)cc3F)c2cc1O [Example 330]" meas_value="> 7.30"
compound="O=C(Nc1ccc(F)cc1)C1(C(=O)Nc2ccc(Oc3ccnc4cc(Cl)ccc34)c(F)c2)CC1 [Example 303]" meas_value="6.30 to 7.30"
compound="COc1cc2nccc(Oc3ncc(NC(=O)CC(=O)Nc4ccccc4)cc3Cl)c2cc1OC [Example 291]" meas_value="5.30 to 6.30"
compound="CCCCNC(=O)C(=O)Nc1ccc(Oc2ccnc3cc(OCC4CCNCC4)c(OC)cc23)c(F)c1 [Example 295]" meas_value="6.30 to 7.30"
compound="CCN(CC)CCOc1cc2nccc(Oc3ccc(NC(=O)C4(C(=O)Nc5ccc(F)cc5)CCC4)cc3F)c2cc1OC [Example 307]" meas_value="> 7.30"
compound="COc1cc2c(Oc3ccc(NC(=O)C(=O)NCCN4CCOCC4)cc3F)ccnc2cc1OCC1CCNCC1 [Example 298]" meas_value="6.30 to 7.30"
compound="COc1cc2nccc(Oc3ccc(NC(=O)C4(C(=O)Nc5ccc(F)cc5)CC4)cc3F)c2cc1OCCCN1CCOCC1 [Example 322]" meas_value="> 7.30"
